Target: T1, ASPP2 CTD (UniProt Q13625 925-1128)
T1 chain: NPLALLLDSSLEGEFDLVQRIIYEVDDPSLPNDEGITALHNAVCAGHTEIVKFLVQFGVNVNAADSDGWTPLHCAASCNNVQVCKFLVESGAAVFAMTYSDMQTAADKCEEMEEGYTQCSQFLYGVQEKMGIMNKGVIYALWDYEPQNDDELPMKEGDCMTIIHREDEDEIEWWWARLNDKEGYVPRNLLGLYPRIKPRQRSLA
Experiment: ITC
Please provide measured Kd for the entries that follow.
Answers are plain numbers, in µM.

Please review the entries below; each comes with its answer.
Need Kd of NGAASKRAFKQSPP (limits not given; taken as the region aligned to p63 331-344 (p63 K336 = p73 K327)) [p73 linker peptide] , thanks.
92.9

How about this binder: p63 DBD (domain or fragment, one Zn2+ bound; start from the paper's DBD constructs (123 + 39 = 162), end from the DNA_BIND feature (362 = paper 323)) SPAIPSNTDYPGPHSFDVSFQQSSTAKSATWTYSTELKKLYCQIAKTCPIQIKVMTPPPQGAVIRAMPVYKKAEHVTEVVKRCPNHELSREFNEGQIAPPSHLIRVEGNSHAQYVEDPITGRQSVLVPYEPPQVGTEFTTVLYNFMCNSSCVGGMNRRPILIIVTLETRDGQVLGRRCFEARICACPGRDRKADEDSIRKQ
13.6

How about this binder: PPGSTKRALPNNTS (limits not given; taken as the region aligned to p63 331-344) [p53 linker peptide]
172

Now examine the next entry.
Need Kd of GDGTKRPFRQN [p63 linker peptide] , thanks.
288
